tested on: 857933-349-R-J2-PDC complex spheroid viability; assay: Anticancer human tumor 857933-349-R-J2-PDC patient-derived colon adenocarcinoma cell line growth inhibition [POLQ]; settings: curve of first compound; second compound 0.316 µM
pIC50: −log10 of the molar value.
molecules and their reported pIC50

Here's what some known entries look like.
molecule	pIC50
COc1ccc([C@@H](O)c2cc(-c3ncnc4cc(N5CCOCC5)ccc34)c(F)cc2Cl)nn1 + Cc1cccc(N(C)C(=O)C2C(O)CCN2c2nc(C)cc(C(F)(F)F)c2C#N)c1	< 5.00
CCc1c2c(nc3ccc(O)cc13)-c1cc3c(c(=O)n1C2)COC(=O)[C@]3(O)CC + COC1C(OC(N)=O)C(O)C(Oc2ccc3c(O)c(NC(=O)c4ccc(O)c(CC=C(C)C)c4)c(=O)oc3c2C)OC1(C)C	7.76

Query: Which pIC50 reading was recorded for the molecule CCc1cc2c(N3CCc4c(cc(Cn5ccnc5)cc4-c4cn(C)nc4C(F)(F)F)C3=O)cc(C)nc2c(OC)n1 + Cc1cccc(N(C)C(=O)C2C(O)CCN2c2nc(C)cc(C(F)(F)F)c2C#N)c1 ?
Result: < 5.00

---

tested on: 857933-349-R-J2-PDC complex spheroid viability; assay: Anticancer human tumor 857933-349-R-J2-PDC cell line growth inhibition [POLQ]; conditions: second compound 0.0316 µM; first compound 0.0316 µM; stronger effect = lower value;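 note: spheroids exposed to compounds for seven days before readout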
Recorded viability, T/C values for a group of compounds are listed next.

Observe how each entry below is paired with its result.
compound	reported_result
CC1COCCN1c1cc(C2(O)CC3CCC(C2)O3)c2cnn(-c3ccn[nH]3)c2n1 (stereo not given) + Cc1cccc(N(C)C(=O)C2C(O)CCN2c2nc(C)cc(C(F)(F)F)c2C#N)c1	73.2%
CC1COCCN1c1cc(-c2ccnn2C)c2ccnc(-c3ccn[nH]3)c2n1 (stereo not given) + COC1C(OC(N)=O)C(O)C(Oc2ccc3c(O)c(NC(=O)c4ccc(O)c(CC=C(C)C)c4)c(=O)oc3c2C)OC1(C)C	89.2%
O=C(c1cc(Cc2n[nH]c(=O)c3ccccc23)ccc1F)N1CCN(C(=O)C2CC2)CC1 + COC1C(OC(N)=O)C(O)C(Oc2ccc3c(O)c(NC(=O)c4ccc(O)c(CC=C(C)C)c4)c(=O)oc3c2C)OC1(C)C	125%

Query: May I ask what viability, T/C has been recorded for CC[C@@]1(O)C(=O)OCc2c1cc1n(c2=O)Cc2cc3c(CN(C)C)c(O)ccc3nc2-1 + Cc1cccc(N(C)C(=O)C2C(O)CCN2c2nc(C)cc(C(F)(F)F)c2C#N)c1 ?
Result: 61.8%

Query: Requested field: viability, T/C. Item: C#Cc1c(F)ccc2cc(O)cc(-c3ncc4c(N5CC6CCC(C5)N6)nc(OCC56CCCN5CC(F)C6)nc4c3F)c12 (stereo not given) + Nc1ccc(C#CCN(C(=O)Cc2ncc(C(F)(F)F)cc2C(F)(F)F)c2ccc(F)cc2)nn1
Result: 84.4%

Query: Name the reported viability, T/C value associated with the compound CC1COCCN1c1cc(C2(S(C)(=N)=O)CC2)nc(-c2ccnc3[nH]ccc23)n1 (stereo not given) + COC1C(OC(N)=O)C(O)C(Oc2ccc3c(O)c(NC(=O)c4ccc(O)c(CC=C(C)C)c4)c(=O)oc3c2C)OC1(C)C
Result: 105%

---

test system: 857933-349-R-J2-PDC complex spheroid viability; assay: Anticancer human tumor 857933-349-R-J2-PDC cell line growth inhibition [POLQ]; settings: second compound 3.16 µM; first compound 0.0316 µM; stronger effect = lower value;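 note: spheroids exposed to compounds for seven days before readout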
Threshold check on viability, T/C: strictly below 90% is MET; on or above 90% is NOT MET.

compound	group
COc1cc(C2c3cc4c(cc3C(OC3OC5COC(C)OC5C(O)C3O)C3COC(=O)C23)OCO4)cc(OC)c1O (stereo not given) + Nc1ccc(C#CCN(C(=O)Cc2ncc(C(F)(F)F)cc2C(F)(F)F)c2ccc(F)cc2)nn1	MET
CC1COCCN1c1cc(-c2ccnn2C)c2ccnc(-c3ccn[nH]3)c2n1 (stereo not given) + Cc1cccc(N(C)C(=O)C2C(O)CCN2c2nc(C)cc(C(F)(F)F)c2C#N)c1	MET

Query: Strictly below 90% in viability, T/C? C#Cc1c(F)ccc2cc(O)cc(-c3ncc4c(N5CC6CCC(C5)N6)nc(OCC56CCCN5CC(F)C6)nc4c3F)c12 (stereo not given) + Nc1ccc(C#CCN(C(=O)Cc2ncc(C(F)(F)F)cc2C(F)(F)F)c2ccc(F)cc2)nn1
Result: NOT MET

Query: Consider Cn1ncnc1[C@H]1c2n[nH]c(=O)c3cc(F)cc(c23)N[C@@H]1c1ccc(F)cc1 + Nc1ccc(C#CCN(C(=O)Cc2ncc(C(F)(F)F)cc2C(F)(F)F)c2ccc(F)cc2)nn1 . Does its viability, T/C lie strictly below 90%?
Result: NOT MET
